- Tested on: Trichomonas vaginalis
- METHOD: Antitrichomonal activity against Trichomonas vaginalis after 48 hrs by trypan blue exclusion assay
- Format: functional
PROPERTY NAME: log10 of MIC (log10 of the value in µM)

>>> recorded_number("Cc1ncc([N+](=O)[O-])n1CCOC(=O)CCN1CCN(c2ccc(F)cc2)CC1")
0.19
>>> recorded_number("C=CC(=O)OCCn1c([N+](=O)[O-])cnc1C")
1.63
>>> recorded_number("CCCCCCCCCc1ccc(OCCOCCOCCOCCOCCOCCOCCOCCOCCO)cc1")
1.78
>>> recorded_number("Cc1ncc([N+](=O)[O-])n1CCSC(=S)N1CCN(c2ccccn2)CC1.O=C(O)C(O)C(O)C(=O)O")
0.80
>>> recorded_number("Cc1ncc([N+](=O)[O-])n1CCOC(=O)CCn1c([N+](=O)[O-])cnc1C")
1.31
>>> recorded_number("Cc1ncc([N+](=O)[O-])n1CCOC(=O)CCn1ccnc1")
1.03
>>> recorded_number("Cc1ncc([N+](=O)[O-])n1CCOS(C)(=O)=O")
0.70
>>> recorded_number("CC(=O)OCCn1c([N+](=O)[O-])cnc1C")
1.37
>>> recorded_number("Cc1ncc([N+](=O)[O-])n1CCOC(=O)CCl")
1.00
>>> recorded_number("Cc1ncc([N+](=O)[O-])n1CCSC(=S)N1CCN(C)CC1")
0.88
>>> recorded_number("Cc1ncc([N+](=O)[O-])n1CCSC(=S)N1CCCC1.O=C(O)C(O)C(O)C(=O)O")
0.92
>>> recorded_number("CCN(CC)C(=S)SCCn1c([N+](=O)[O-])cnc1C")
0.01
>>> recorded_number("Cc1ncc([N+](=O)[O-])n1CCSC(=S)N1CCN(c2ccc([N+](=O)[O-])cc2)CC1")
0.46
>>> recorded_number("Cc1ncc([N+](=O)[O-])n1CCO")
1.07
>>> recorded_number("Cc1ncc([N+](=O)[O-])n1CCOC(=O)CCN(C)CCC(Oc1ccc(C(F)(F)F)cc1)c1ccccc1 (stereo unspecified)")
1.07
>>> recorded_number("Cc1ncc([N+](=O)[O-])n1CCSC(=S)N1CCN(c2ncccn2)CC1")
1.40
>>> recorded_number("Cc1ncc([N+](=O)[O-])n1CCOC(=O)CCn1ccnc1[N+](=O)[O-]")
0.97
>>> recorded_number("Cc1ncc([N+](=O)[O-])n1CCSC(=S)N(C)C.O=C(O)C(O)C(O)C(=O)O")
0.06
>>> recorded_number("Cc1ncc([N+](=O)[O-])n1CCOC(=O)CCN1CCN(c2ccc([N+](=O)[O-])cc2)CC1")
0.16
>>> recorded_number("Cc1ncc([N+](=O)[O-])n1CCOC(=O)CCn1nnc2ccccc21")
1.44
>>> recorded_number("Cc1ncc([N+](=O)[O-])n1CCn1cnc2ccccc21")
0.66

* * *

Entries and their MIC
- Tested on: Candida parapsilosis
- METHOD: Antifungal activity against Candida parapsilosis after 48 hrs by broth microdilution technique
- Format: functional
- CONDITION NOTES: Lodderomyces parapsilosis
PROPERTY NAME: MIC

>>> result("Cc1ncc([N+](=O)[O-])n1CCCl")
"> 50 µg/mL"
>>> result("Cc1ncc([N+](=O)[O-])n1CCSC(=S)N1CCN(C)CC1")
"> 50 µg/mL"
>>> result("OC(Cn1cncn1)(Cn1cncn1)c1ccc(F)cc1F")
"1 µg/mL"
>>> result("COc1ccccc1N1CCN(C(=S)SCCn2c([N+](=O)[O-])cnc2C)CC1.O=C(O)C(O)C(O)C(=O)O")
"> 50 µg/mL"
>>> result("CC(=O)OCCn1c([N+](=O)[O-])cnc1C")
"> 50 µg/mL"
>>> result("Cc1ncc([N+](=O)[O-])n1CCOC(=O)CCn1c([N+](=O)[O-])cnc1C")
"> 50 µg/mL"
>>> result("Cc1ncc([N+](=O)[O-])n1CCSC(=S)N1CCN(c2ncccn2)CC1")
"> 50 µg/mL"
>>> result("CS(=O)(=O)[O-].Cc1ncc([N+](=O)[O-])n1CC[n+]1ccccc1")
"> 50 µg/mL"
